Let's look at some binders and their measured SPOT peptide array binding signal intensity.
Target: CaSho1
Assay: SPOT peptide array binding signal intensity (averaged, normalized) (arbitrary units (background-subtracted, floor 0; scale differs between SH3 domains)); higher = stronger binding of the SH3 domain to the peptide
Form field (numeric): enter value without unit.

Answered examples (2):
Look at this binder and give its reported SPOT peptide array binding signal intensity. GKKVRPLLVLLLSRA
562

Please report the recorded SPOT peptide array binding signal intensity for RPKRRAPPPVPKKPS .
236

Next binder, please.
Dear colleague, I am looking for the recorded SPOT peptide array binding signal intensity of the following binder: QLLNPNRRAPRRPLS
72
